src = paper PMC5667739

biological target: T1, GII.10 P domain (Vietnam026) (norovirus GII.10 (Vietnam026)); assay: ITC; details: both partners purified
T1 construct: source: E. coli, purified
READOUT_NAME: Kd (nM)
Give bare numbers, in nM.

Consider the worked cases shown below.
BINDER | Kd / nM
Nano-32 (VHH) VHH: QVQLQESGGGLVQPGGSLRLSCAASGFTLGYYPIGWFRQAPGKGLEGVSCISGSGGSANYAASVKGRFTISRDNAKNTVYLQMNSLKPEDTAIYYCAADLSSLTTVQAMCVIPRPGFSAKAYDYWGLGTQVTVSS | 60
Nano-42 (VHH) VHH: QVQLQESGGGLVQPGGSLRLSCAASGSVSRTYVMGWYRQTPGNQRELVATITSVGSTNYADSLKGRFTISRENAENTVYLQMNSLKPEDTAIYYCKYIRYSPIHAPLDYWGQGTQVTVSS | 0.809
Nano-4 (VHH) VHH: QVQLQESGGGLVQPGGSLRLFCAASGFTFSSYAMRWYRQAPGKERELVAAITSAGGSTHYADSVKERFTISRDNAKNTMYLQMNSLKPEDTAVYYCNARRDYGDSWFTAGGGYWGQGTQVTVSS | 35

Batch of 3 binders: report Kd for each.
1. Nano-14 (VHH, also called N14; source: E. coli WK6 (pHEN6C vector), purified) VHH: QVQLQESGGGLVQSGGSLRLSCAASRNINSMHVVGWYRQAPGNQRELVASITDDGSTDYVDSVKGRFTISRDIAENTVYLQMNSLNPEDTAVYYCKGTIVVFTTPMHYWGKGTQVTVSS
2. Nano-26 (VHH, also called N26; source: E. coli WK6 (pHEN6C vector), purified) VHH: QVQLQESGGGLVQPGGSLRLSCTAPRIIFFMYDVGWYRQAPEKQRELVAQINSDVSTKYADSVKGRFTISRDNAKRTVYLQMNDLKPEDAAVYYCNVRRASADYWGQGTQVTVSS
3. Nano-27 (VHH) VHH: QVQLQESGGGLVQPGGSLRLSCAASGTIFSRNIMGWYRQAPGKERELVASIYSDRSTWYAESVEGRFTISRDNVKNTLYLQMNSLKPEDTAMYYCRDRTLGSWGQGTQVTVSS

1: 10.4; 2: 3.2; 3: 9.5
